# System: Venturia inaequalis
# METHOD_DESCRIPTION: Venturia test (apple)/protective
# Type: in vivo
# ASSAY_CONTEXT: application rate 100 g/ha, protective, evaluation 10 days after inoculation
MEASURED_ATTRIBUTE: Efficacy in % (%)
The answer is to be given in %; state only the numeric part.

Consider the worked cases shown below.
Cc1nn(C)c(F)c1C(=O)Nc1ccccc1-c1ccc2c(c1)OC(F)(F)C(F)(F)O2 :: 100
O=C(Nc1ccccc1-c1ccc2c(c1)OC(F)(F)C(F)(F)O2)c1ccccc1C(F)(F)F :: 99
Cc1nn(C)c(F)c1C(=O)Nc1ccccc1-c1ccc2c(c1)OC(F)(F)O2 :: 96
Cc1nc(C(F)(F)F)c(C(=O)Nc2ccccc2-c2ccc3c(c2)OC(F)(F)C(F)(F)O3)s1 :: 100
Cn1cc(C(=O)Nc2ccccc2-c2ccc3c(c2)OC(F)(F)O3)c(C(F)(F)F)n1 :: 100
Cc1nc(C(F)(F)F)c(C(=O)Nc2ccccc2-c2ccc3c(c2)OC(F)(F)O3)s1 :: 100

Tell me the measured Efficacy in % of Cc1ccsc1C(=O)Nc1ccccc1-c1ccc2c(c1)OC(F)(F)O2 , please. 98

###

# METHOD_DESCRIPTION: logP determination by HPLC on reversed-phase column (EEC Directive 79/831 Annex V.A8)
# Format: physicochemical
# ASSAY_CONTEXT: pH 2.3, C18, 43° C., 0.1% aqueous phosphoric acid/acetonitrile, read-out: logP (pH2.3)
Listed next: entries and their corresponding chromatographic logP.

O=C(Nc1ccccc1-c1ccc2c(c1)OC(F)(F)C(F)(F)O2)c1ccccc1C(F)(F)F :: 5.93

Note: attention shifts to another entry.
Tell me the measured chromatographic logP of O=C(Nc1ccccc1-c1ccc2c(c1)OC(F)(F)O2)c1ccccc1C(F)(F)F , please. 3.94

###

# Test system: Sphaerotheca fuliginea
# METHOD_DESCRIPTION: Sphaerotheca test (cucumber)/protective
# Type: in vivo
# ASSAY_CONTEXT: Podosphaera fuliginea, 168 h, application rate 100 g/ha, protective, evaluation 7 days after inoculation, read-out: Efficacy in %
MEASURED_ATTRIBUTE: pest or weed control at 100 g/ha (%)
The answer is to be given in %; state only the numeric part.

Consider the worked cases shown below.
Cc1nn(C)c(F)c1C(=O)Nc1ccccc1-c1ccc2c(c1)OC(F)(F)C(F)(F)O2 :: 98
Cc1ccsc1C(=O)Nc1ccccc1-c1ccc2c(c1)OC(F)(F)O2 :: 100
Cc1nc(C(F)(F)F)c(C(=O)Nc2ccccc2-c2ccc3c(c2)OC(F)(F)C(F)(F)O3)s1 :: 100
Cc1nc(C(F)(F)F)c(C(=O)Nc2ccccc2-c2ccc3c(c2)OC(F)(F)O3)s1 :: 100
O=C(Nc1ccccc1-c1ccc2c(c1)OC(F)(F)O2)c1ccccc1C(F)(F)F :: 98

Tell me the measured pest or weed control at 100 g/ha of Cc1nn(C)c(F)c1C(=O)Nc1ccccc1-c1ccc2c(c1)OC(F)(F)O2 , please. 92

Tell me the measured pest or weed control at 100 g/ha of O=C(Nc1ccccc1-c1ccc2c(c1)OC(F)(F)C(F)(F)O2)c1ccccc1C(F)(F)F , please. 100

Tell me the measured pest or weed control at 100 g/ha of Cn1cc(C(=O)Nc2ccccc2-c2ccc3c(c2)OC(F)(F)O3)c(C(F)(F)F)n1 , please. 100

###

# METHOD_DESCRIPTION: logP determination by HPLC on reversed-phase column (EEC Directive 79/831 Annex V.A8)
# Assay type: physicochemical
# ASSAY_CONTEXT: reversed-phase C18 HPLC column, pH 2.3, C18, 43° C., 0.1% aqueous phosphoric acid/acetonitrile, read-out: logP (pH2.3)
Listed next: entries and their corresponding chromatographic logP.
The answer should be a number; do not append a unit.

Consider the worked cases shown below.
Cc1nn(C)c(F)c1C(=O)Nc1ccccc1-c1ccc2c(c1)OC(F)(F)O2 :: 3.22
Cc1nn(C)c(F)c1C(=O)Nc1c(F)cc(F)cc1-c1ccc2c(c1)OCO2 :: 2.34
Cn1cc(C(=O)Nc2ccccc2-c2ccc3c(c2)OC(F)(F)O3)c(C(F)(F)F)n1 :: 3.37
Cc1nn(C)c(F)c1C(=O)Nc1ccccc1-c1ccc2c(c1)OC(F)(F)C(F)(F)O2 :: 3.77
Cc1nc(C(F)(F)F)c(C(=O)Nc2ccccc2-c2ccc3c(c2)OC(F)(F)C(F)(F)O3)s1 :: 3.94
Cn1cc(C(=O)Nc2ccccc2I)c(C(F)(F)F)n1 :: 2.46
Cc1ccsc1C(=O)Nc1ccccc1-c1ccc2c(c1)OC(F)(F)O2 :: 3.99
Cc1nc(C(F)(F)F)c(C(=O)Nc2ccccc2-c2ccc3c(c2)OC(F)(F)O3)s1 :: 3.81

Note: attention shifts to another entry.
Tell me the measured chromatographic logP of OB(O)c1ccc2c(c1)OC(F)(F)C(F)(F)O2 , please. 2.49
